assay_name: Inhibition of HIV NL43 recombinant reverse transcriptase by scintillation proximity assay
Parameters: species or system Human immunodeficiency virus
Cut-off 4 nM on IC50: below means 1, at or above means -1.

Q: API: query returns whether the compound falls strictly under 4 nM in IC50. Query: O=C(NCc1nccs1)c1[nH]c2ccc(Br)cc2c1S(=O)(=O)N1CCCC1
Ans: 1

Q: Say whether its IC50 is strictly beneath 4 nM. Entry: NC(=O)c1[nH]c2ccc(C3CC3)cc2c1S(=O)(=O)N1CCCC1
Ans: -1

Q: Determine if NC(=O)c1[nH]c2ccc(Cl)cc2c1S(=O)(=O)c1ccccc1 shows IC50 strictly lower than 4 nM.
Ans: 1

Q: Confirm or reject: IC50 of NC(=O)c1[nH]c2ccc(Br)cc2c1S(=O)(=O)NC1CCCC1 lies strictly below 4 nM
Ans: -1

Q: Regarding O=C(NCc1c(F)cccc1Cl)c1[nH]c2ccc(Br)cc2c1S(=O)(=O)N1CCCC1 , kindly confirm whether its IC50 is beneath 4 nM.
Ans: 1

Q: Consider NC(=O)c1[nH]c2ccc(Br)cc2c1S(=O)(=O)N1CCCCC1 . Does its IC50 lie strictly below 4 nM?
Ans: -1

Q: Could you please tell me whether IC50 recorded for O=C(NCc1ccnc2ccccc12)c1[nH]c2ccc(Br)cc2c1S(=O)(=O)N1CCCC1 is less than 4 nM?
Ans: 1

Q: Hello, is IC50 of the following compound strictly smaller than 4 nM? NC(=O)c1[nH]c2ccc(-c3ccccc3)cc2c1S(=O)(=O)N1CCCC1
Ans: -1

Q: Determine if N#Cc1ccc2[nH]c(C(N)=O)c(S(=O)(=O)N3CCCC3)c2c1 shows IC50 strictly lower than 4 nM.
Ans: -1

Q: Would you kindly verify if IC50 of CCC(OC)c1cnc(-c2[nH]c3ccc(Br)cc3c2S(=O)(=O)N2CCCC2)[nH]1 (stereo unspecified) is strictly less than 4 nM?
Ans: -1

Q: IC50 strictly < 4 nM for this compound? O=C(NCc1cncs1)c1[nH]c2ccc(Br)cc2c1S(=O)(=O)N1CCCC1
Ans: -1
